Data origin, for the record: ChEMBL document CHEMBL1143874

Biological target: Prostaglandin G/H synthase 1 (Ovis aries)
Sequence (P05979 whole entry): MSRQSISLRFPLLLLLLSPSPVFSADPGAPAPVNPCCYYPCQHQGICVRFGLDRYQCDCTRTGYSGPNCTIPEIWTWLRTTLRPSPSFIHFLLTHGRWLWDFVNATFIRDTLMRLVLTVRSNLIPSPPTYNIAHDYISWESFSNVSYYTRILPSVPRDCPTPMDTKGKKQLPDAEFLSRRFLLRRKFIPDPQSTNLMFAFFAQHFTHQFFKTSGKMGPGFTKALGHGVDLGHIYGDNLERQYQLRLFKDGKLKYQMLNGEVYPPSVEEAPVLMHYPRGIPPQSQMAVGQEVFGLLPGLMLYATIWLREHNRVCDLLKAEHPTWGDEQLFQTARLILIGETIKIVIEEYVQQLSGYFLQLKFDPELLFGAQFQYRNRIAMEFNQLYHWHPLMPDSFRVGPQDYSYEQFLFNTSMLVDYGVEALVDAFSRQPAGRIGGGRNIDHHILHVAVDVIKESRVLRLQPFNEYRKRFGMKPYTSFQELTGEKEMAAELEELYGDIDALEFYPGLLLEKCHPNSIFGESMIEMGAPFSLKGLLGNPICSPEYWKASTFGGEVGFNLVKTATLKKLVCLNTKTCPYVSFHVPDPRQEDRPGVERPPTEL
readoutKind: pIC50
pIC50 (log units): -log10 of the concentration in mol/L.

// below: answered compounds
>>> numericreadout("CS(=O)(=O)c1ccc(/C=C(/C(=O)O)c2ccccc2)cc1")
5.82
>>> numericreadout("CS(=O)(=O)c1ccc(/C=C(/C(=O)OCCO[N+](=O)[O-])c2ccc(F)cc2)cc1")
5.80
>>> numericreadout("COc1ccc(/C(=C\\c2ccc(S(C)(=O)=O)cc2)C(=O)O)cc1")
4.50

Input line: Item under review: "COc1ccc(/C(=C\c2ccc(S(C)(=O)=O)cc2)C(=O)OCCO[N+](=O)[O-])cc1" . Reported pIC50?
Output line: 5.96

Input line: Now try "CS(=O)(=O)c1ccc(/C=C(/C(=O)OCCO[N+](=O)[O-])c2ccc(Br)cc2)cc1" .
Output line: 6.43
